- study system: hMeprin β (Homo sapiens, UniProt Q16820)
- Sequence (Q16820 62-701): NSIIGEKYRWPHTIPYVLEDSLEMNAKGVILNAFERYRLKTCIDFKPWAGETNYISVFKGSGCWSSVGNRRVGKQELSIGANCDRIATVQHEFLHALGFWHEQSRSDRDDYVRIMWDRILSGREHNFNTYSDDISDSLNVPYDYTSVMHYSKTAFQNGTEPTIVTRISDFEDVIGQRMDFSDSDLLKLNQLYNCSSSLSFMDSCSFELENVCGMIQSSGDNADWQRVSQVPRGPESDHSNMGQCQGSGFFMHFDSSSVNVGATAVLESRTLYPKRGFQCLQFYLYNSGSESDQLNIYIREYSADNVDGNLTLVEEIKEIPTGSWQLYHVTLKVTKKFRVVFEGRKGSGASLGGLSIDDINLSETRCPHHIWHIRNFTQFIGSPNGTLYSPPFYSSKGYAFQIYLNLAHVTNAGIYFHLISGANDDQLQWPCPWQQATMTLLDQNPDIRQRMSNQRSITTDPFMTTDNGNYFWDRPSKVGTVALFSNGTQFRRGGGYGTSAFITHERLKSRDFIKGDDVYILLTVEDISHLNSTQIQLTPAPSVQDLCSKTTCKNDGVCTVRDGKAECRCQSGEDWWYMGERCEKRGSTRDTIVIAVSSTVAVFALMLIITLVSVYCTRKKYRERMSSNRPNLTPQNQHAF
quantity kind: pKi
Please express pKi as -log10 of the molar concentration.

Input: What value of pKi has been reported for the following compound? O=C(CN(Cc1ccc(-c2ccccc2)cc1)Cc1cccc(C(=O)O)c1)NO
Output: 5.99

Input: Sample O=C(CN(Cc1ccc(Cl)cc1)Cc1cccc(C(=O)O)c1)NO — what was its pKi?
Output: 7.48

Input: Look at this compound and give its reported pKi. O=C(CN(Cc1c(F)ccc(O)c1F)Cc1c(F)ccc(O)c1F)NO
Output: 5.71

###

- study system: hMeprin α (Homo sapiens)
- Sequence (Q16819 66-746): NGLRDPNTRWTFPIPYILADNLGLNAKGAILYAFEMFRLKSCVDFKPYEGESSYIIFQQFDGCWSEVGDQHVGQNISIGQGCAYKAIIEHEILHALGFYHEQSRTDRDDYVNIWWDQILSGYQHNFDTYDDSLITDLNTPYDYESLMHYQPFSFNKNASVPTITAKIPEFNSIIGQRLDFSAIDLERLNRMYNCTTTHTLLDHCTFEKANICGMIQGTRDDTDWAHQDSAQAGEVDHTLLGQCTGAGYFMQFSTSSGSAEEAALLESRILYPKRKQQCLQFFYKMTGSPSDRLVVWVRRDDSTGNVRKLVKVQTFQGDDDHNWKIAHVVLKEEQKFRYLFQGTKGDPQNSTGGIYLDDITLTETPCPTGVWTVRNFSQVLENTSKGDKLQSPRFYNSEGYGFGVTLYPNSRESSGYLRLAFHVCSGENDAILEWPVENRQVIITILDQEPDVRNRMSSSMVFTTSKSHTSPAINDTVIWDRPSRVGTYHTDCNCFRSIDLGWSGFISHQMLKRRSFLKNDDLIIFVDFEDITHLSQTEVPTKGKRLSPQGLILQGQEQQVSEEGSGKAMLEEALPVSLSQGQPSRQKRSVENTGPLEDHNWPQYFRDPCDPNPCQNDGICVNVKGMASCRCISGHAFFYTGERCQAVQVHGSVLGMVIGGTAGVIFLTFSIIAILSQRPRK
- assay comment: biochemical
- Format: biochemical
Measured pKi of individual entries
Lab note: report pKi as minus log10 of the concentration in molar units, number only.

Input: Which pKi is listed for O=C(CN(Cc1c(F)ccc(O)c1F)Cc1c(F)ccc(O)c1F)NO ?
Output: 6.00

Next molecule, pKi to be filled in.
Input: Fill in the blank: the reported pKi of O=C(CN(Cc1ccc(F)cc1)Cc1cccc(C(=O)O)c1)NO is ____.
Output: 5.77
